Values from patent US20250236608A1

Biological target: EGFR L858R (Homo sapiens (Human), UniProt P00533, L858R)
Sequence (P00533 25-1210 L858R): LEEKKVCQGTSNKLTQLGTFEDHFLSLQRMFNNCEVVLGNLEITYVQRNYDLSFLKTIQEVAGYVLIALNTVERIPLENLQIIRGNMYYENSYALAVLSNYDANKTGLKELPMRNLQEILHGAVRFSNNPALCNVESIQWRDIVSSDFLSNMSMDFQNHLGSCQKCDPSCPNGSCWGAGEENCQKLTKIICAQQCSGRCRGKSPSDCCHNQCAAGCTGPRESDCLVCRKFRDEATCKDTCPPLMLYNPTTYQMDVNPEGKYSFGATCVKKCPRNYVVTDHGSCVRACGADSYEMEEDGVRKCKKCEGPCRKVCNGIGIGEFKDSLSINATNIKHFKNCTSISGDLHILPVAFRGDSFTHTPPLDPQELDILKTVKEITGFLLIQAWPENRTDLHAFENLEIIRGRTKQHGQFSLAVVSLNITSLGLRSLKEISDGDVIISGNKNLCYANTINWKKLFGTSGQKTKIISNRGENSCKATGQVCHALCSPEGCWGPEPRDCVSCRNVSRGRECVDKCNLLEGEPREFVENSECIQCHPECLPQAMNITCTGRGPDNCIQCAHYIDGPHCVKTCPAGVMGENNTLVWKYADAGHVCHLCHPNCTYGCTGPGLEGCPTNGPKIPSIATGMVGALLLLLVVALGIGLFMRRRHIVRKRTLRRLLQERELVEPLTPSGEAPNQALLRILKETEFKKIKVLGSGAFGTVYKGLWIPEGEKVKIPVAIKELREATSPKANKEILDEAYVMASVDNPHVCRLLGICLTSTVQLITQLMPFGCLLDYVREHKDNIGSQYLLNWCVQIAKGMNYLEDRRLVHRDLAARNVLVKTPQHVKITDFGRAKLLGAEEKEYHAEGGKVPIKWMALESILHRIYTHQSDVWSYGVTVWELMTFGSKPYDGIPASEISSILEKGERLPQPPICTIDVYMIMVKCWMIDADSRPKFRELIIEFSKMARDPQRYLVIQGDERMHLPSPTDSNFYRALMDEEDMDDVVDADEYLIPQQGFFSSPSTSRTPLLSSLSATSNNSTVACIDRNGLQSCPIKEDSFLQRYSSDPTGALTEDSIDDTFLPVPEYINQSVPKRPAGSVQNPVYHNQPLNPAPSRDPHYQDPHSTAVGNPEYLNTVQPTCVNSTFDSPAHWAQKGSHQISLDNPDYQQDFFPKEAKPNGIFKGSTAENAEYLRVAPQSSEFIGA
Assay: Biochemical EGFR inhibition assay, EGFR L858R
Details: Caliper mobility shift; 1.0 mM ATP or ATP Km; read-out: Enz EGFR_L858R IC50
readout label: IC50 (nM)

In [3]: df
Out[3]:
                                   molecule  value_reported
0  COc1cc2ncnc(-c3cn(C)nc3-c3ccccc3)c2cc1NC(=O)c1ccc(C(F)F)nc1 [Example 352]             3.6
1  COc1cc2ncnc(-c3cn(C)nc3-c3ccccc3)c2c(F)c1NC(=O)C1CCC1 [Example 295]             4.6
2  CN(C)CCOc1cc2ncnc(-c3cn(C)nc3-c3ccccc3)c2cc1NC(=O)C12CC(C1)C2 [Example 299]            15.3
3  CN(C)C12CC(C(=O)Nc3nc4c(-c5cn(C)nc5-c5ccc(F)cc5)ncnc4cc3OC(F)F)(C1)C2 [Example 466]              39
4  COc1cc2ncnc(-c3cn(C)nc3-c3ccccc3)c2nc1NC(=O)c1cn(C(F)(F)F)nc1C [Example 428]             3.9
5  COc1cc2ncnc(-c3cn(C)nc3-c3ccccc3)c2cc1O[C@H]1CN(C)C[C@@H]1F [Example 6]             2.3
6  COc1cc2ncnc(-c3cn(C)nc3-c3ccccc3)c2nc1OC(C)c1cscn1 (centres unmarked) [Example 31]               1
7  COc1cc2ncnc(-c3cn(C)nc3-c3ccccc3)c2nc1NC(=O)C1CC1 [Example 355]             1.7

###

Target: EGFR (d746-750) (Homo sapiens (Human), UniProt P00533, DEL746-750)
Sequence (P00533 other isoform, or with tags, fused parts or gaps del 1-694/del 746-750 limits assumed): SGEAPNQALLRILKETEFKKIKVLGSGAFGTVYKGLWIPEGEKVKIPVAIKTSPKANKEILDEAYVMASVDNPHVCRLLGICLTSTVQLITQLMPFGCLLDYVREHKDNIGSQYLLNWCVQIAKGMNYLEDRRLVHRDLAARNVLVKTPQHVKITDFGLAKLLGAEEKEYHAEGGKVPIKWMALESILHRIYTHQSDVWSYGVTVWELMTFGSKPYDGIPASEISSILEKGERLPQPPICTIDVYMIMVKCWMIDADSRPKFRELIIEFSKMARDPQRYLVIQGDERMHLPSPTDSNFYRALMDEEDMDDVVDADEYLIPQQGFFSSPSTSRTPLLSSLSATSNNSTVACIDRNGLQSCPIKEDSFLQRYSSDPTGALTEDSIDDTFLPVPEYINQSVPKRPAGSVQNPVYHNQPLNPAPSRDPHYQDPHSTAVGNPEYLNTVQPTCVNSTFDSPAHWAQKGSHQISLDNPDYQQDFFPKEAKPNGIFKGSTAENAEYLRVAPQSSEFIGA
Assay: Biochemical EGFR inhibition assay, EGFR (d746-750)
Conditions: Caliper mobility shift; 1.0 mM ATP or ATP Km; read-out: Enz EGFR_Exon19-del746-750 IC50
readout label: IC50 (nM)

>>> print(df.to_string())
                                    compound                                    system  unit_info  value_reported
 0  COc1cc2ncnc(-c3cn(C)nc3-c3ccccc3)c2cc1OC(=O)N1C[C@@H](C)OC[C@@H]1C (racemic) [Example 91]  EGFR (d746-750) (Homo sapiens (Human), UniProt P00533, DEL746-750)         nM             5.6
 1  COc1cc2ncnc(-c3cn(C)nc3-c3ccc(F)cc3)c2cc1NC(=O)c1scnc1C [Example 304]  EGFR (d746-750) (Homo sapiens (Human), UniProt P00533, DEL746-750)         nM               1
 2  COc1cc2ncnc(-c3cn(CC(F)F)nc3-c3ccccc3)c2nc1NC(=O)[C@@]12C[C@@H]1CN(C)C2 (single isomer, unassigned) [Example 397]  EGFR (d746-750) (Homo sapiens (Human), UniProt P00533, DEL746-750)         nM               1
 3  CN(C)CCOc1cc2ncnc(-c3cn(C)nc3-c3ccccc3)c2cc1NC(=O)c1ccccc1F [Example 300]  EGFR (d746-750) (Homo sapiens (Human), UniProt P00533, DEL746-750)         nM             1.7
 4  COc1cc2ncnc(-c3cn(C)nc3-c3ccc(F)cc3)c2nc1NC(=O)[C@]12COC[C@H]1C2 (single isomer, unassigned) [Example 381]  EGFR (d746-750) (Homo sapiens (Human), UniProt P00533, DEL746-750)         nM             0.7
 5  COc1cc2ncnc(-c3cn(C)nc3-c3ccccc3)c2cc1C(C)(C)O [Example 121]  EGFR (d746-750) (Homo sapiens (Human), UniProt P00533, DEL746-750)         nM             2.7
 6  COc1cc2ncnc(-c3cn(C)nc3-c3ccccc3)c2cc1NC(=O)[C@@H](C)F (single isomer, unassigned) [Example 245]  EGFR (d746-750) (Homo sapiens (Human), UniProt P00533, DEL746-750)         nM               1
 7  COc1cc2ncnc(-c3cn(CC(F)F)nc3-c3ccccc3)c2nc1NC(=O)C1(C(F)(F)F)CC1 [Example 370]  EGFR (d746-750) (Homo sapiens (Human), UniProt P00533, DEL746-750)         nM             0.7
 8  COc1cc2ncnc(-c3cn(C)nc3-c3ccccc3)c2cc1NC(=O)C12COCC1C2 (centres unmarked) [Example 278]  EGFR (d746-750) (Homo sapiens (Human), UniProt P00533, DEL746-750)         nM             2.3
 9  COc1cc2ncnc(-c3cn(C)nc3-c3ccccc3)c2cc1OC(=O)N1CCOC[C@@H]1C [Example 62]  EGFR (d746-750) (Homo sapiens (Human), UniProt P00533, DEL746-750)         nM             2.5
10  COc1cc2ncnc(-c3cn(CC(F)F)nc3-c3ccccc3)c2cc1OC(=O)N1CCN(C)C[C@@H]1C [Example 70]  EGFR (d746-750) (Homo sapiens (Human), UniProt P00533, DEL746-750)         nM             1.7
11  COc1cc2ncnc(-c3cn(C)nc3-c3ccccc3)c2cc1NC(=O)c1cnc(C2CC2)s1 [Example 209]  EGFR (d746-750) (Homo sapiens (Human), UniProt P00533, DEL746-750)         nM             0.8
12  COc1cc2ncnc(-c3cn(C)nc3-c3ccccc3)c2cc1NC(=O)c1sc(C2CC2)nc1C [Example 354]  EGFR (d746-750) (Homo sapiens (Human), UniProt P00533, DEL746-750)         nM             1.2
13  COc1cc2ncnc(-c3cn(C)nc3-c3ccccc3)c2nc1NC(=O)c1cnn(C(F)(F)F)c1C [Example 427]  EGFR (d746-750) (Homo sapiens (Human), UniProt P00533, DEL746-750)         nM             0.7
14  CCOc1cc2ncnc(-c3cn(C)nc3-c3ccccc3)c2cc1NC(=O)[C@]12C[C@H]1CN(C)C2 (single isomer, unassigned) [Example 257]  EGFR (d746-750) (Homo sapiens (Human), UniProt P00533, DEL746-750)         nM             0.9
15  COc1cc2ncnc(-c3cn(C)nc3-c3ccccc3)c2cc1NC(=O)c1ccn(C(C)C)n1 [Example 205]  EGFR (d746-750) (Homo sapiens (Human), UniProt P00533, DEL746-750)         nM             0.8
16  COc1cc2ncnc(-c3cn(C)nc3-c3ccccc3)c2cc1O[C@@H]1CCN(C)C[C@H]1F [Example 1]  EGFR (d746-750) (Homo sapiens (Human), UniProt P00533, DEL746-750)         nM             1.8
17  CCOc1cc2ncnc(-c3cn(C)nc3-c3ccccc3)c2nc1NC(=O)[C@@]12COC[C@@H]1C2 (single isomer, unassigned) [Example 380]  EGFR (d746-750) (Homo sapiens (Human), UniProt P00533, DEL746-750)         nM             0.7
18  [2H]C([2H])([2H])N1CCN(C(=O)Oc2cc3c(-c4cn(C)nc4-c4ccccc4)ncnc3cc2OC)[C@@H](C)C1 [Example 93]  EGFR (d746-750) (Homo sapiens (Human), UniProt P00533, DEL746-750)         nM             2.5
19  COc1cc2ncnc(-c3cn(C)nc3-c3ccccc3)c2nc1OC(C)c1nnnn1C (centres unmarked) [Example 29]  EGFR (d746-750) (Homo sapiens (Human), UniProt P00533, DEL746-750)         nM             1.9
20  COc1cc2ncnc(-c3cn(CCO)nc3-c3ccccc3)c2nc1NC(=O)c1cnn(C(F)(F)F)c1 [Example 415]  EGFR (d746-750) (Homo sapiens (Human), UniProt P00533, DEL746-750)         nM             1.5
21  CCn1cc(-c2ncnc3cc(OC)c(NC(=O)c4cnn(C(F)(F)F)c4)cc23)c(-c2ccccc2)n1 [Example 307]  EGFR (d746-750) (Homo sapiens (Human), UniProt P00533, DEL746-750)         nM             0.9
22  COc1cc2ncnc(-c3c[nH]nc3-c3ccc(F)cc3)c2nc1NC(=O)[C@]12COC[C@H]1C2 [Example 467]  EGFR (d746-750) (Homo sapiens (Human), UniProt P00533, DEL746-750)         nM             1.3
23  COc1cc2ncnc(-c3cn(C)nc3-c3ccccc3)c2cc1NC(=O)c1ccccc1C [Example 197]  EGFR (d746-750) (Homo sapiens (Human), UniProt P00533, DEL746-750)         nM             0.8
24  COc1cc2ncnc(-c3cn(C)nc3-c3ccccc3)c2cc1NC(=O)c1cnc(C)s1 [Example 206]  EGFR (d746-750) (Homo sapiens (Human), UniProt P00533, DEL746-750)         nM             0.4
25  COc1cc2ncnc(-c3cn(C)nc3-c3ccccc3)c2cc1NC(=O)[C@@]12COC[C@@H]1C2 (single isomer, unassigned) [Example 261]  EGFR (d746-750) (Homo sapiens (Human), UniProt P00533, DEL746-750)         nM             1.3
26  COc1cc2ncnc(-c3cn(C)nc3-c3ccccc3)c2nc1O[C@@H](C)c1cscn1 (single isomer, unassigned) [Example 50]  EGFR (d746-750) (Homo sapiens (Human), UniProt P00533, DEL746-750)         nM             0.3
27  CCOc1cc2ncnc(-c3cn(C)nc3-c3ccccc3)c2nc1NC(=O)C12CC(N(C)C)(C1)C2 [Example 420]  EGFR (d746-750) (Homo sapiens (Human), UniProt P00533, DEL746-750)         nM             1.7
28  COc1cc2ncnc(-c3cn(C)nc3-c3ccccc3)c2cc1NC(=O)[C@@H](C)CN(C)C (single isomer, unassigned) [Example 238]  EGFR (d746-750) (Homo sapiens (Human), UniProt P00533, DEL746-750)         nM             8.2
